Test system: XIP peptide (Xip251-270)
Assay: small-molecule binders of XIP peptide, primary screen, biochemical, small-molecule microarray, fluorescence 635/667 nm, 0.5 µg/mL protein (AID 1183)
Conditions: small-molecule microarray binding, fluorescence 635 nm; higher = more signal
composite z-score listing for selected molecules.

molecule	composite z-score
COC(=O)[C@]1(Cc2ccccc2CN=[N+]=[N-])N=C(c2ccc(OCCCO)cc2)O[C@@H]1c1ccccc1N=[N+]=[N-]	0.724
CCCCC=C[C@@H](NC(=O)C(C)(C)C)c1ccccc1	0.324
COC(=O)[C@@]1(Cc2ccc(F)cc2)[C@H]2c3cc(C(=O)N4CCCC4)n(Cc4ccc(C(F)(F)F)nc4)c3C[C@H]2CN1C(=O)c1ccccc1	0.602
COC(=O)[C@@]1(Cc2ccc(F)cc2)[C@H]2c3cc(C(=O)N(C)C)n(Cc4ccsc4Br)c3C[C@H]2CN1C(=O)c1ccccc1	0.102
CO[C@H]1O[C@H](CO)[C@@H](OC(=O)Nc2cccc(F)c2)[C@H](OC(=O)Nc2ccc3c(c2)OCO3)[C@@H]1OC(=O)Nc1ccc2c(c1)OCO2	0.894
COCCOC(=O)N1C(=O)[C@@]2(c3cc(C#CCNC(N)=O)ccc31)[C@H](C(N)=O)[C@H]1C(=O)O[C@H](c3ccccc3)[C@H](c3ccccc3)N1[C@@H]2c1ccc(O)cc1	-0.532
[N-]=[N+]=NCc1ccccc1[C@H]1OC(c2ccc(OCCCO)cc2)=N[C@@]1(Cc1ccccc1N=[N+]=[N-])C(N)=O	0.599
COc1ccc([Si](C)(C)[C@H]2[C@H](CC(=O)N3CCC[C@H]3CO)O[C@@]3(C(=O)N(Cc4cccc(N5CCCCC5=O)c4)c4ccccc43)[C@@H]2C)cc1	0.714
COC(=O)C(CC#Cc1ccc2c(c1)[C@]1(C(=O)N2)[C@H](C(=O)N2CCCCCCC2)[C@H]2C(=O)O[C@H](c3ccccc3)[C@H](c3ccccc3)N2[C@@H]1c1ccc(OCCO)cc1)C(=O)OC	0.956
CCN1C(=O)C2CC(=O)C3C(CN(S(=O)(=O)c4ccc(C)cc4)C3c3ccc(C)cc3)C2C1=O (stereo not drawn)	-0.248
CO[C@H]1O[C@H](CO)[C@@H](OC(=O)Nc2ccccc2)[C@@H]2OC(=O)[C@@H](Cc3ccccc3)C/C=C/C[C@H](Cc3ccccc3)C(=O)O[C@@H]12	0.455
CCOC(=O)C[C@H]1[C@H](OC(=O)c2cc3ccccc3oc2=O)[C@@H](NC(=O)c2ccc(-c3ccccc3)cc2)c2cc(OCCCO)ccc2N1C(=O)Cc1ccc(OC)cc1	0.437
CCCC1(C(=O)OC)C=C2C(=C(C(C)C)C(=O)C2C)CN1 (stereo not drawn)	-0.619
COC(=O)[C@@]1(Cc2ccc(OC)cc2)[C@H]2c3cc(C(=O)N(C)C)n(Cc4c(CO)[nH]cc(C)c4=O)c3C[C@H]2CN1C(=O)c1ccccc1	0.349
CCCCCN1CC=CC23O[C@@H]4/C=C\CCCOC(=O)C4[C@H]2C(=O)N(CCCCCO)[C@@H]3C1=O (stereo partly drawn)	0.199
C=C(C(=O)CC[C@H](OC(=O)c1ccccc1-c1ccccc1C(=O)O)c1ccc(OCCO)cc1)C(C)C	0.569
C=C[C@H](OC)[C@@H](O)c1ccc(OC)c(O)c1	1.1
COC(=O)[C@H](Cc1ccccc1)N1CC(C)(OC)O[C@@H](Cc2ccccc2)[C@H]1/C=C/C1CC1 (stereo partly drawn)	-0.128
COc1cccc(C)c1NC(=O)O[C@H]1[C@H](OC(=O)Nc2ccccc2-c2ccccc2)[C@@H](OC(=O)Nc2ccccc2-c2ccccc2)[C@@H](OC)O[C@@H]1CO	0.89
CC(C)C[C@H]1NC(=O)CNC(=O)[C@@]23C(=O)N[C@@H](Cc4ccccc4)C2[C@H](C)[C@@]2(C)O[C@H]2C3/C=C/C/C=C\CNC1=O (stereo partly drawn)	0.685
C=CC[C@]1(C(=O)NCC(O)CO)N=C(c2ccc(OCCCO)cc2)O[C@H]1c1ccccc1CN=[N+]=[N-] (stereo partly drawn)	-0.201
CC(C)(C)OC(=O)CC[C@@]1(C(=O)N2CCOCC2)N=C(c2ccc(OCCCO)cc2)O[C@@H]1c1ccccc1CN=[N+]=[N-]	0.838
COCCCNC(=O)[C@@]1(CCC(=O)OC(C)(C)C)N=C(c2ccc(OCCCO)cc2)O[C@H]1c1ccccc1	0.754
COCCOC(=O)N1C(=O)[C@@]2(c3ccccc31)[C@H](C(=O)Nc1nc3ccccc3s1)[C@H]1C(=O)O[C@H](c3ccccc3)[C@H](c3ccccc3)N1[C@@H]2c1ccccc1OCCO	0.801
COc1ccc(-c2cc3c(c(CCc4ccccc4)n2)[Si](C(C)C)(C(C)C)O[C@H]3c2ccccc2)cn1	-0.179
COC(=O)C[C@H]1O[C@]2(C(=O)N(C)c3ccccc32)[C@@H](C)[C@@H]1[Si](C)(C)c1ccccc1	0.428
CCCCC(=C=CC[C@@H](O)c1ccc(OCCO)cc1)CCO	0.336
COc1ccc(CCNC(=O)[C@@]2(c3ccc([N+](=O)[O-])cc3)CC(=O)N(C3CCCCC3)[C@@H]2c2ccc(CO)cc2I)cc1	0.671
